Assayed system: UniProt P08588
Assay procedure: Summary of pharmacological outcome at the β1-AR (CHO-β1-luciferase or CHO-β1-SPAP cells)
Condition notes: β1-AR, summary
Quantity: Pharmacological Outcome: SCE conformation

Some solved entries appear below for comparison.
>>> observed("OCCOc1ccc(CNCCc2c[nH]c3ccccc23)cc1")
"No receptor interaction"
>>> observed("C=CCc1ccccc1OCC(O)CNC(C)C (racemic) [Alprenolol, reference compound]")
"Agonist (biphasic)"
>>> observed("C=CCOc1ccccc1OCC(O)CNC(C)C (racemic) [Oxprenolol, reference compound]")
"Agonist (biphasic)"
>>> observed("CC(C)(Cc1c[nH]c2ccccc12)NCC(O)COc1ccccc1C#N (centres unmarked) [Bucindolol, reference compound]")
"Agonist (biphasic)"
>>> observed("Cc1ccc(OCC(O)CNC(C)C)cc1 (centres unmarked)")
"No receptor interaction"

I am curious: what Pharmacological Outcome: SCE conformation value has been reported for Cc1cc(C)c(OC[C@@H](O)CNC(C)C)c(C)c1 ?
No receptor interaction

Lookup C=CCc1ccccc1OCCNCCCOC
No receptor interaction

Do the same for CC(C)(C)NC[C@@H](O)COc1ccccc1C#N please
Agonist (biphasic)

And then CC(C)NCC(O)COc1cccc2[nH]ccc12 (racemic) [Pindolol, reference compound] , what is it?
Agonist (biphasic)

---

Assayed system: UniProt:P07550
Assay procedure: CRE-SPAP production in CHO-β2-CRE-SPAP cells
Format: cell-based
Parameters: expressed in transfected cells; host or cells: CHO-K1 clonal line (CHO-β2-CRE-SPAP)
Condition notes: Log KD (CGP12177 as Agonist), rightward shift of CGP12177 response
Quantity: Kd (nM)

>>> observed("COc1ccc(OCC(O)CNCCc2c[nH]c3ccccc23)cc1 (stereo not drawn) [VL06]")
1170

1. O[C@H](CNCCc1c[nH]c2ccccc12)COc1ccc(F)cc1 [VL10]
2. CC(C)(C)NC[C@H](O)COc1cccc2c1CCCC2=O [VL03]
// compare measured Kd, left 1 , right 2 , return larger Please respond with the label that marks your chosen entry.
1
(1: 138 nM, 2: 0.0759 nM)

---

Assayed system: β1-AR (Homo sapiens, UniProt P08588)
Sequence (P08588 whole entry): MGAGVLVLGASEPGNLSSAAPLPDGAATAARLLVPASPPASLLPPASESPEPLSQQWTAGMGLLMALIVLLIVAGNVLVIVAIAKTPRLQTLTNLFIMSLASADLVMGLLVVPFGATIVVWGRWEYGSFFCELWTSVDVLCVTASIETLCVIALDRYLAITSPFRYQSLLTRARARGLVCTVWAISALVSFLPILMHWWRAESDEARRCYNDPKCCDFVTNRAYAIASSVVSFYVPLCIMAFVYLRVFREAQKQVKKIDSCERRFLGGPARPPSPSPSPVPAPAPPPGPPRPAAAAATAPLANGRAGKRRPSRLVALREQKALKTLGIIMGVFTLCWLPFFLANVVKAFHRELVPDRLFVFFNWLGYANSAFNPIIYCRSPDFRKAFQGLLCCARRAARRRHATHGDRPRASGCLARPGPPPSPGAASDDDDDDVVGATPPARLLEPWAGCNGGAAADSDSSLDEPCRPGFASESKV
Assay procedure: CRE-luciferase production in CHO-β1-CRE-luciferase cells
Condition notes: response compared to 10 μM isoprenaline, CHO-β1-CRE-luciferase cells
Quantity: % isop (%)

>>> observed("CC(C)NCC(O)COc1cccc2[nH]ccc12 (racemic) [Pindolol, reference compound]")
11.7
>>> observed("COc1ccc(OCC(O)CNCCc2c[nH]c3ccccc23)cc1 (stereo not drawn)")
2.7
>>> observed("CC(C)(C)NC[C@@H](O)COc1ccccc1C#N")
23.9

A. CC(C)(Cc1c[nH]c2ccccc12)NCC(O)COc1ccccc1C#N (stereo not drawn) [Bucindolol, reference compound]
B. C=CCc1ccccc1OCC(O)CNC(C)C (racemic) [Alprenolol, reference compound]
C. COc1ccccc1OC[C@@H](O)CNC(C)C
Please give the order of these molecules when sorted by % isop, largest value leading. Form entry: labels listed in requested order.
A, C, B
(A: 23.7%, C: 9.7%, B: 3.2%)

---

Assayed system: human β2-AR (Homo sapiens)
Sequence (P07550 whole entry): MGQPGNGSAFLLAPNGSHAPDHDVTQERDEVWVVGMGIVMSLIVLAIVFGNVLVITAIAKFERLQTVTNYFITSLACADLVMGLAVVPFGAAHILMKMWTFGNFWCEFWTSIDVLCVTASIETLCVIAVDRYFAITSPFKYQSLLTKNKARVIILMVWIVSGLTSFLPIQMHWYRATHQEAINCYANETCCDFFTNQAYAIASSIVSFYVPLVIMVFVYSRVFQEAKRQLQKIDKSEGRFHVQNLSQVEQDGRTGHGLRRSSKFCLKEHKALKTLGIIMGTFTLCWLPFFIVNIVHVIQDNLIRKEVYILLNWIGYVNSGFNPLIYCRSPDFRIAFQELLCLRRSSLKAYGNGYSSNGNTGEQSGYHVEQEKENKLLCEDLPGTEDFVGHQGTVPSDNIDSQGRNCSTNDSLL
Assay procedure: CRE-SPAP production in CHO-β2-CRE-SPAP cells
Condition notes: agonist action
pEC50: −log10 of the molar value.
Quantity: pEC50

>>> observed("Cc1cc2c(OC[C@@H](O)CNC(C)(C)C)cccc2[nH]1")
9.85
>>> observed("COc1ccc(OCC(O)CNCCc2c[nH]c3ccccc23)cc1 (stereo not drawn)")
6.44
>>> observed("CC(C)(C)NC[C@@H](O)COc1ccccc1C#N")
9.35
>>> observed("O[C@H](CNCCc1c[nH]c2ccccc12)COc1ccc(F)cc1")
7.40

A. CC(C)(Cc1c[nH]c2ccccc12)NCC(O)COc1ccccc1C#N (stereo not drawn) [Bucindolol, reference compound]
B. COc1ccccc1OC[C@@H](O)CNC(C)C
Field: entry with larger pEC50 (options A / B ). Mark your selection by writing its label.
A
(A: 9.70, B: 8.42)
